Molecular target: FPR1 (Homo sapiens, UniProt P21462)
Sequence (P21462 1-350): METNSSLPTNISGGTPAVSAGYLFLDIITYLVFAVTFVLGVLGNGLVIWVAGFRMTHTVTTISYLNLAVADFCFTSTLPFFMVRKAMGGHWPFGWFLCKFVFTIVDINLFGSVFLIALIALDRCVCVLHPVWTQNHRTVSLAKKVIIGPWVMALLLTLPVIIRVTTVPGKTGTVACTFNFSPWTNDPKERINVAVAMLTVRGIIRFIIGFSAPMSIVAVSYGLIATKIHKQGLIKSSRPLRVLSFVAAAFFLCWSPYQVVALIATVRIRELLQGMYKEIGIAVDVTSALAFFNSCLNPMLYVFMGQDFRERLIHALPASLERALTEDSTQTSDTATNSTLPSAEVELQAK
Assay: FPR1 β-arrestin recruitment assay (PathHunter CHO-FPR1, antagonistic mode)
Conditions: CHO FPR1 β-arrestin cells; antagonistic assay vs reference agonist fMLF at its EC80; 60 min preincubation
Where a SMILES comes first, the peptide text is derived from it. Bridges are numbered along the chain shown (N, C = ends). [ ]: non-standard residue; d: D form.
Attribute measured: IC50 (nM)
Answer format: numeric, nM implied, no suffix.

Bench note: what IC50 did CC[C@H](C)[C@@H]1NC(=O)[C@H]([C@@H](C)O)NC(=O)[C@H](Cc2c[nH]c3ccccc23)NC(=O)[C@@H](C)NC(=O)CNC(=O)[C@H](Cc2c[nH]cn2)NC(=O)[C@@H]2CSSC[C@H](NC1=O)C(=O)N[C@@H](Cc1ccc(O)cc1)C(=O)N[C@@H](CCC(=O)O)C(=O)N[C@@H](CCCCN)C(=O)N1CCC[C@@H]1C(=O)N1CCC[C@H]1C(=O)N[C@@H](Cc1ccc(O)cc1)C(=O)N[C@@H](Cc1c[nH]cn1)C(=O)N[C@@H](CCCCN)C(=O)N2 [compound 71] (cyclo(YHKCHG[dA]WTICYEK[dP]P); disulfide 4-11) show?
77
